molecular target: Macaca fascicularis IL-36R extracellular domain expressed with a C-terminal myc-myc-hexahistidine tag (Macaca fascicularis); test: SPR (Biacore 4000), mAb captured on anti-human Fc, 25°C
READOUT KIND: pKd
Worth noting: pKd values are minus log10 of concentrations stated in mol/L.

Below: 3 binders and their reported pKd.
binder="H4H14728P (antibody, human IgG4 S228P, kappa, V domains shown) VH: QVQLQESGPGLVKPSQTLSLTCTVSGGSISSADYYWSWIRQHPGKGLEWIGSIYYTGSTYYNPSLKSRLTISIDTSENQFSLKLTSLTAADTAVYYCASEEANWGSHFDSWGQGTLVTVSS VL: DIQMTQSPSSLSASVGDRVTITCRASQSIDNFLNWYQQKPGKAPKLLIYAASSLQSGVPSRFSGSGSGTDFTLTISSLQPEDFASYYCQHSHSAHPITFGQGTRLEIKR" readout_kind=pKd reported_result=8.10
binder="H4H14709P (antibody, human IgG4 S228P, kappa, V domains shown) VH: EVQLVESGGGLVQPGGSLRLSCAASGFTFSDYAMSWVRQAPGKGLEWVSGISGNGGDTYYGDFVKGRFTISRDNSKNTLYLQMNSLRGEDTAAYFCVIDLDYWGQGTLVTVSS VL: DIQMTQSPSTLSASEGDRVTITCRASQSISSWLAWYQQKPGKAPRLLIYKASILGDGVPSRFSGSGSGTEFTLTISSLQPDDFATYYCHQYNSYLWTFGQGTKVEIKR" readout_kind=pKd reported_result=7.84
binder="H4H14700P2 (antibody, human IgG4 S228P, kappa, V domains shown) VH: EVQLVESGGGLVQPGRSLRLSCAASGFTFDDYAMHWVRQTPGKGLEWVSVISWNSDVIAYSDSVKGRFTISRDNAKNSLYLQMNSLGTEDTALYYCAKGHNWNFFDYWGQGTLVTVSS VL: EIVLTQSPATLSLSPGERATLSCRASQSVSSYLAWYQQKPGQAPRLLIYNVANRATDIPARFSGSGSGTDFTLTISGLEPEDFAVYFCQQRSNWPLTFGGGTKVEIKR" readout_kind=pKd reported_result=7.97

Field: next binder
Q) I'd like to know its pKd. The binder in question is H4H14731P (antibody, human IgG4 S228P, kappa, V domains shown) VH: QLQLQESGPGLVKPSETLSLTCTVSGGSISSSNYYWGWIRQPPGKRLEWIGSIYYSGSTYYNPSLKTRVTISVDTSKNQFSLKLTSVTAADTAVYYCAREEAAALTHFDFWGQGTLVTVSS VL: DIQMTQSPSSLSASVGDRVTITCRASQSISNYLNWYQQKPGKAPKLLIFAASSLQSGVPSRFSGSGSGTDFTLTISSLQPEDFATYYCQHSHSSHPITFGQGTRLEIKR
A) 7.80

meta.source: patent US20200017592A1
